Assay: in vitro
Conditions: human, hela cells, % viability
Entries annotated with measured viability at 28.5 h, 10 µM
Give the value, in units of %, as a plain number.

Examples from the recorded data:
Cc1ccccc1-c1nnc(SC(C)C)n1CCN(C)S(C)(=O)=O ... 101
CN1CCC(=NNC(=O)CSCc2ccccc2Br)CC1 ... 104
CC(=O)Nc1nc2ccc(S(=O)(=O)N3CCCC3)cc2s1 ... 98.8
O=C(O)CCNS(=O)(=O)c1ccc(Br)cc1 ... 90.6

Q. Quick check: viability at 28.5 h, 10 µM of Cc1nn(C)cc1-c1cncn1CC(C)N1CCCCC1 (stereo not drawn) ?
A. 92.1

Q. Please give the result for `Cc1cn(C[C@H](NC(=O)c2cccc(F)c2)C(=O)O)c(=O)[nH]c1=O` too.
A. 109

Q. Same for `O=C(O)c1ccc(S(=O)(=O)c2ccc3c(c2)C(=O)N(c2cc(C(=O)O)cc(C(=O)O)c2)C3=O)cc1`
A. 92.8

Q. Ok, now CC(C)(C)NC(=O)C1C2CCC3(CC(=O)c4cc(Cl)ccc4O3)C21 (stereo not drawn)
A. 109

Q. And the next one, `CC(C)c1nsc(NS(=O)(=O)c2cccc(C(F)(F)F)c2)n1` ?
A. 98.3

---

Experiment: in vitro
Settings: human, hela cells, % viability
Entries and their viability at 28.5 h, 10 µM
Quick reminder: number only, in %, skip the unit.

Observe how each entry below is paired with its result.
O=C(Cc1cccc(F)c1)N1CCOCC1 ... 83.9
CNCCc1ccccc1Sc1ccccc1 [CBK027155G] ... 102

Q. What value of viability at 28.5 h, 10 µM has been recorded for this entry: `FC(F)(F)c1cccc(Sc2ccc(Cl)c(Cl)c2)n1`
A. 91.2

Q. Moving on to `Cn1nccc1CCNS(=O)(=O)c1cccc(C(=O)N2CCCCC2)c1`
A. 89.2

Q. Query `Cc1cc(CNC(=O)[C@@H]2Cc3cn(C)c4cccc(c34)[C@H](CC(C)C)N2)no1` next
A. 104

Q. Please do the same for `CCNC(=O)N1CC2(CCN(Cc3ccc4nsnc4c3)CC2)c2ccccc21` as well.
A. 102

---

Listed below: viability at 28.5 h, 10 µM values for each entry.
Test: in vitro
Conditions: human, hela cells, % viability
Expressed in %, but write only the number.

CCN(CC)CCCNc1c([N+](=O)[O-])c(=O)n(C)c2ccccc12 [CBK264893] ... 112

Q. Please look up its viability at 28.5 h, 10 µM: Cc1ccc(CNC(=O)OCc2cccnc2C)o1 [CBK200131]
A. 99

Q. Please give the result for NC(CCc1nc2ccccc2[nH]1)c1nc2ccccc2[nH]1 (stereo not shown) [CBK269970] too.
A. 96.2

---

Experiment: in vitro
Conditions: human, hela cells, % viability
Measured Metric: viability at 28.5 h, 10 µM (%)
State the answer as a number, implicitly in %.

Worked examples, 8 compounds total:
CSCCCNC(=O)c1cnn2c(C)c(Cc3cccnc3)c(C)nc12 ... 104
NC(=O)c1cccc(-c2nc(-c3cccs3)cnc2N)c1 ... 89.7
O=C(/C=C\c1cccs1)NC(=S)Nc1ccc([N+](=O)[O-])cc1O ... 89.4
Cn1c(SCc2ccc([N+](=O)[O-])cc2)nnc1-c1ccc(NC(=O)c2ccccc2Cl)cc1 ... 111
O=C(Nc1ccc(-c2nc3cc(-c4nc5cc(NC(=O)c6cccs6)ccc5[nH]4)ccc3[nH]2)cc1)c1cccs1 ... 97.6
Cn1nc([N+](=O)[O-])nc1OCc1nc2ccccc2n1C ... 88.9
Clc1ccc(COc2nccnc2OCc2cccnc2N2CCOCC2)cc1Cl ... 88.8
Cc1cc2n(n1)[C@@H](C(F)F)C[C@@H](C1CCCN(C(=O)C(C)C)C1)N2 (stereo partly shown) ... 96.1

Q. # lookup: viability at 28.5 h, 10 µM of COC(=O)c1c(NC(=S)NCc2ccc(S(N)(=O)=O)cc2)sc2c1CCC(C)C2 (stereo not shown)
A. 97.6

Q. Input `CC(C)(C)OC(=O)N1CCN(c2ccnc(N)n2)CC1`
A. 99.4

---

Test: in vitro
Conditions: human, hela cells, % viability
Measured Metric: viability at 28.5 h, 10 µM (%)
Write the number in % without appending the unit.

Some solved entries appear below for comparison.
Cc1nc(C2CCN(C(=O)c3ccccn3)CC2)c2sccn12 [CBK282238] ... 91.6
COc1ccc(C(C)C)cc1-c1nc(NS(C)(=O)=O)cc2ccccc12 [CBK073779] ... 94.2
Cc1cc(C)c2c(CC(=O)N(C)CCN(C)C)c(C)[nH]c2c1 [CBK282732] ... 83.6
O=C(c1ccc(-c2ccc(F)cc2)o1)N1CCC(n2c(=O)oc3ccccc32)CC1 [CBK286175] ... 104
Cn1cc(C(=O)NCc2ccccc2)c2ccccc21 [CBK200196] ... 72.9
CNC(=O)c1ccc(-c2cc(OC)c(OC)c(OC)c2)nc1NCC1CC1 [CBK106312] ... 101
COc1ccc(N2C(=O)C(CC(=O)Nc3ccc(F)cc3)N(Cc3ccc4c(c3)OCO4)C2=O)cc1 (stereo not drawn) [CBK266515] ... 97
O=C(O)c1cc(/C=C/c2ccc(Br)cc2)nc2ccccc12 [CBK299805] ... 94.3

# input for lookup
Q. Would you mind telling me what viability at 28.5 h, 10 µM value was observed for CN1Cc2ccccc2CC1C(=O)N1CCCC12CC=CC2 (stereo not drawn) [CBK282838] ?
A. 81.3

---

Experiment: in vitro
Settings: human, hela cells, % viability
Measured Metric: viability at 28.5 h, 10 µM (%)
Field: numeric (%). Do not append units.

These solved cases illustrate the format of a correct answer.
CN1CCN(C(=O)CN(C)S(=O)(=O)c2ccc3ccccc3c2)CC1 ... 96.4
Cc1sc2nc(C(C)N(C)Cc3cc[nH]n3)[nH]c(=O)c2c1C (stereo not shown) ... 99.3
c1ccc(-c2ccccc2CN2CCC(Oc3nccnc3OCCN3CCOCC3)CC2)cc1 [CBK082924T] ... 102
COC(=O)CCc1ccc(S(=O)(=O)N2CCCN(Cc3cc(F)cc(F)c3)CC2)cc1 ... 106
Brc1ccccc1-c1nnc2n1CCCCC2 ... 90.9

Q. # viability at 28.5 h, 10 µM lookup, item `CN(CCN(C)/N=C/c1cccc2ccccc12)/N=C/c1cccc2ccccc12`
A. 107

Q. Repeat with COc1nc(N)nc2c1ncn2C1CC(O)C(CO)O1 (stereo not shown)
A. 89.4

Q. Please give the result for `CN(Cc1cc(Br)cs1)C(=O)CCN1C(=O)COc2ccccc21` too.
A. 90

Q. Continue with `CCn1cc(C(=O)O)c(=O)c2cnc(N3CCN(C(=S)Nc4cc5oc6ccccc6c5cc4OC)CC3)nc21`
A. 101

---

Test: in vitro
Details: human, hela cells, % viability
Reported viability at 28.5 h, 10 µM values for a set of compounds
Lab book: enter the figure in %, no units written.

NC(=O)c1ccc(C#Cc2ccccc2)o1 ... 94.8
Cc1cc(-c2nnc(SCc3ccc(Cl)cc3)n2C)no1 ... 112
Cc1ccc(C(=O)NNCc2ccccc2)c(NCc2cccnc2)n1 ... 88.6
O=[N+]([O-])c1ccc(CSc2nnc(-c3cnccn3)n2Cc2ccco2)cc1 ... 100

Q. Name the recorded viability at 28.5 h, 10 µM for CCC(C)NC(=O)C(Cc1ccc([N+](=O)[O-])cc1)N1C(=O)c2ccccc2C1=O (stereo not shown) .
A. 105

Q. Input `Nc1ccc(-c2nnc(SCC(=O)Nc3ccc(Br)cc3F)n2-c2ccccc2)cc1`
A. 98.8

---

Experiment: in vitro
Details: human, hela cells, % viability
Measured Metric: viability at 28.5 h, 10 µM (%)
Quick reminder: number only, in %, skip the unit.

Worked examples follow.
c1cncc(COc2cncc(OC3CCN(Cc4ccc5c(c4)OCO5)C3)n2)c1 (stereo not drawn) ... 88.9
CC(=O)NCC1CCC(C(NC(=O)C2CC2)c2ccccn2)CC1 (stereo not drawn) ... 87.5
COc1ccc2[nH]cc(CCNC(=O)c3cncnc3)c2c1 ... 87.1
O=C(O)c1ccc2c(c1)C(=O)N(c1ccc(-c3ccnc(-c4ccc(N5C(=O)c6ccc(C(=O)O)cc6C5=O)cc4)n3)cc1)C2=O ... 104
CC(C)Oc1ccc(C(=O)C2=C(O)C(=O)N(CCN(C)C)C2c2ccncc2)cc1 (stereo not drawn) ... 90.3

Q. viability at 28.5 h, 10 µM lookup needed for `N#Cc1c(N)nc(SCC(=O)O)c(C#N)c1-c1ccc(O)cc1` , thanks.
A. 98

Q. Subsequent entry: COCCN(C(=O)c1ccc2ccccc2c1)C1CCS(=O)(=O)C1 (stereo not drawn)
A. 102

Q. Consider next the compound `CC1CCN(C(=O)Cn2c(=O)n(C(C)C)c3ncccc32)CC1` in the same way.
A. 89.5

Q. // same read-out, input: `CN(C(=O)CN1CCN(c2cc(-c3ccsc3)ncn2)CC1)c1ccccc1`
A. 99.7
